Biological target: recombinant human Cdc7/DBF4 (Homo sapiens, UniProt O00311)
Sequence (O00311 whole entry): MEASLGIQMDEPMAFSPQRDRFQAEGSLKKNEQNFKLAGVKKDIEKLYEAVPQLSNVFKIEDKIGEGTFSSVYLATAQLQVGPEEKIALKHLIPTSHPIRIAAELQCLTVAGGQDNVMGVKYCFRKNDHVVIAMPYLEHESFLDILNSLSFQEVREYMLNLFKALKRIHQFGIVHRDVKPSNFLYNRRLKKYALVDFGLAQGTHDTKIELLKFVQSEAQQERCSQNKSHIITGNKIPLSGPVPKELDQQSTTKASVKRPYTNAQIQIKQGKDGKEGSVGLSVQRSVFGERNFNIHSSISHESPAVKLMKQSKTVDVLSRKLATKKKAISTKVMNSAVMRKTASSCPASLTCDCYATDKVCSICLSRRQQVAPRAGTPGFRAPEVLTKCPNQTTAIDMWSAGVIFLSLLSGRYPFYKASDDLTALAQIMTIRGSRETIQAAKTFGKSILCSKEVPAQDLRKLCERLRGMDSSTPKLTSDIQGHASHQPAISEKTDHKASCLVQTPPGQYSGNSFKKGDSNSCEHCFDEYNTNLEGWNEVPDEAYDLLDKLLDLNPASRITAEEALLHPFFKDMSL
Sequence (Q9UBU7 whole entry partner): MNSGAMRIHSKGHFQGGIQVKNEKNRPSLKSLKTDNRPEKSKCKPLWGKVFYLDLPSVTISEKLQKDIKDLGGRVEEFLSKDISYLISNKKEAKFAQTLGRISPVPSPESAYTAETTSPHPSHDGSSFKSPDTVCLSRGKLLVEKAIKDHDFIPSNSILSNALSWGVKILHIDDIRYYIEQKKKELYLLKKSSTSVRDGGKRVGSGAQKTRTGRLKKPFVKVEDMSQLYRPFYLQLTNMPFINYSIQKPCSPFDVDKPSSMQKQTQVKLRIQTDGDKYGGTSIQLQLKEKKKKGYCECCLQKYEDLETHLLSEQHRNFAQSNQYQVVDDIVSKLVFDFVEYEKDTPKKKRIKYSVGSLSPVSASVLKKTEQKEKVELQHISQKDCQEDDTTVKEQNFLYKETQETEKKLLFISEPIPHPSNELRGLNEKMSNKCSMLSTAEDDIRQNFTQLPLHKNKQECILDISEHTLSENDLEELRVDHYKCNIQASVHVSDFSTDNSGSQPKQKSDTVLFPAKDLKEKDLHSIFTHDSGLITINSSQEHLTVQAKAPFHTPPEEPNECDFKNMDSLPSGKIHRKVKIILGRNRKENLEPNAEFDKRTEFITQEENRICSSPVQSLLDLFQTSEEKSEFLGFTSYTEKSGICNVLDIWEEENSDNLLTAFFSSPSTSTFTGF
Experiment: LanthaScreen Eu Kinase Inhibition Assay (Cdc7 inhibition)
Conditions: recombinant human Cdc7/DBF4 0.5 nM, 60 min room temperature, 1% DMSO; read-out: Cdc7 CI50
property name: IC50 (nM)

Recorded IC50, per entry:
molecule | system tested | units | IC50
Fc1ccc(CCSc2ncnc3[nH]cnc23)cc1 [compound 9, 6-((4-fluorophenethyl)thio)-9H-purine] | recombinant human Cdc7/DBF4 (Homo sapiens, UniProt O00311) | nM | 397
O=C(CSc1ncnc2[nH]cnc12)c1ccc2ccccc2c1 [compound 3] | recombinant human Cdc7/DBF4 (Homo sapiens, UniProt O00311) | nM | 698
Clc1cccc(CCSc2ncnc3[nH]cnc23)c1 [compound 7, 6-((3-chlorophenethyl)thio)-9H-purine] | recombinant human Cdc7/DBF4 (Homo sapiens, UniProt O00311) | nM | 305
O=C(CSc1ncnc2[nH]cnc12)c1ccc(I)cc1 [compound 5] | recombinant human Cdc7/DBF4 (Homo sapiens, UniProt O00311) | nM | 380

(a) c1ccc(CSc2ncnc3[nH]ccc23)cc1 [compound 10]
(b) COc1ccc(C(=O)CSc2ncnc3[nH]cnc23)cc1 [compound 2]
(c) COc1cccc(C(=O)CSc2ncnc3[nH]cnc23)c1 [compound 4]
(d) Clc1ccc(CCSc2ncnc3[nH]cnc23)cc1 [compound 6, 6-((4-chlorophenethyl)thio)-9H-purine]
Q. Rank descending by IC50. Return value: ordered labels per request.
A. c, b, a, d

Each recorded value in this set is attributed to patent US20210346388A1.
